Where do these numbers come from? They come from PubChem BioAssay AID1296.

Here, each record is paired with measured activation data.
EXPERIMENT SUMMARY: insulin gene promoter stimulation in islet cells – imaging, TRM-6 cells (human fetal islet line), eGFP reporter, cell count, primary screen (AID 1296;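 also: share of cells whose green reporter signal exceeds an intensity cutoff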)
CONDITION INFO: at 2 µM; hits give high values, plate-scaled: unstimulated 0, stimulated control 100
Among all 130,000 compounds or so, about 1,000 (0.77%) were called active. Not shown: some 1% with an inconclusive outcome. The full list was thinned out, with actives kept by preference.
MEASUREMENT NAME: activation

- CCNc1nc(NC(C)C)nc(N2CC(=O)N(CC(=O)OCC)C2=N)n1: 344% (active)
- Cc1onc(C(=O)NN)c1C(=O)N1CCN(C(c2ccccc2)c2ccccc2)CC1: -81.8% (inactive)
- Cc1ccc(S(=O)(=O)NC(=O)COc2ccccc2C)cc1: -81.2% (inactive)
- Cc1cccc2cc(CN(Cc3cccs3)C(=S)NCc3ccco3)c(=O)[nH]c12: -7.94% (inactive)
- CCCC(=O)NC(Nc1ccccc1OC)C(Cl)(Cl)Cl (stereo not drawn): -4.35% (inactive)
- Cc1nc(CC(=O)NNS(=O)(=O)c2ccc(F)c(Cl)c2)cs1: -7.69% (inactive)
- CN(CC(=O)NC1CCCC1)S(=O)(=O)c1cnc[nH]1: -7.14% (inactive)
- COC(=O)Cc1c(O)ccn(Cc2cccc(C(F)(F)F)c2)c1=O: 2.86% (inactive)
- CC1C/C(=N/NC(=O)c2cccs2)CC(C)(C)C1 (stereo not drawn): 7.25% (inactive)
- Clc1ccc(-c2nnc(-c3ccccc3)nc2N2CCSCC2)cc1: -5.41% (inactive)
- Cn1nc(-c2ccccc2)c(-c2nc(-c3ccc(Cl)cc3)no2)c1Cl: 471% (active)
- O=C(Nc1ccccc1F)c1ccc(Cn2cc(Br)cn2)cc1: 0% (inactive)
- CCOc1ccc(S(=O)(=O)Nc2ccncc2)c(C)c1C: -72.7% (inactive)
- COc1ccc(CC(=O)NCc2nnc(SCC(=O)Nc3ncc(C)s3)n2C)cc1: -5.56% (inactive)
- N#Cc1ccc(Oc2cc(C(F)(F)F)nc(-c3ccccn3)n2)cc1: -9.09% (inactive)
- COC(=O)c1ccc(NC(=O)CSc2nnc(CNc3ccc(OC)cc3)n2C)cc1: 0% (inactive)
- Cc1cc(C)c2c(n1)nn1c(N3CCN(c4cccc(Cl)c4)CC3)cc(C)nc21: 141% (inactive)
- Cc1nn(Cc2ccc(C(=O)N3N=C(C(F)F)CC3(O)C(F)F)cc2)c(C)c1[N+](=O)[O-] (stereo not drawn): 4.44% (inactive)
- Cc1ccccc1OCC(=O)NCC(=O)OCC(=O)c1ccc2ccccc2c1: -2.78% (inactive)
- Cn1cc(/C=C/c2nc3ccccc3c(=O)n2-c2cccc([N+](=O)[O-])c2)c2ccccc21: -9.09% (inactive)
- CCC1SC(CC)C(=O)N(CC(=O)NC2CCCCC2)C1=O (stereo not drawn): -8.33% (inactive)
- Cn1nccc1CNC(=O)c1ccnn1C: 7.69% (inactive)
- O=C(CCc1[nH]c2ccccc2c1Sc1ccccc1)N(CCO)CCO: -6.9% (inactive)
